conditions: in 2-propoxyethanol, 318.15 K
READOUT: solubility (mole fraction)

Documented solubility (mole fraction) of CS(=O)(=O)OCCCCOS(C)(=O)=O : 0.00155

----------
details: in methyl acetate, 283.15 K
READOUT: solubility (mole fraction)
Keep it simple and answer with nothing but the number.

Documented solubility (mole fraction) of CS(=O)(=O)OCCCCOS(C)(=O)=O : 0.00109

----------
conditions: in 2-propoxyethanol, 298.15 K
READOUT: solubility (mole fraction)
Keep it simple and answer with nothing but the number.

Documented solubility (mole fraction) of CS(=O)(=O)OCCCCOS(C)(=O)=O : 0.00053

----------
details: in n-propanol, 323.15 K
READOUT: solubility (mole fraction)
Keep it simple and answer with nothing but the number.

Documented solubility (mole fraction) of CS(=O)(=O)OCCCCOS(C)(=O)=O : 0.000444

----------
settings: in 2-propoxyethanol, 278.15 K
READOUT: solubility (mole fraction)

Documented solubility (mole fraction) of CS(=O)(=O)OCCCCOS(C)(=O)=O : 0.000168

----------
conditions: in n-propanol, 308.15 K
READOUT: solubility (mole fraction)
Keep it simple and answer with nothing but the number.

Documented solubility (mole fraction) of CS(=O)(=O)OCCCCOS(C)(=O)=O : 0.000107

----------
settings: in NMP, 298.15 K
READOUT: solubility (mole fraction)
Keep it simple and answer with nothing but the number.

Documented solubility (mole fraction) of CS(=O)(=O)OCCCCOS(C)(=O)=O : 0.0401

----------
settings: in methyl acetate, 323.15 K
READOUT: solubility (mole fraction)
Keep it simple and answer with nothing but the number.

Documented solubility (mole fraction) of CS(=O)(=O)OCCCCOS(C)(=O)=O : 0.0145

----------
conditions: in NMP, 303.15 K
READOUT: solubility (mole fraction)
Keep it simple and answer with nothing but the number.

Documented solubility (mole fraction) of CS(=O)(=O)OCCCCOS(C)(=O)=O : 0.0487

----------
conditions: in ethanol, 303.15 K
READOUT: solubility (mole fraction)
Keep it simple and answer with nothing but the number.

Documented solubility (mole fraction) of CS(=O)(=O)OCCCCOS(C)(=O)=O : 0.000142

----------
conditions: in methanol, 298.15 K
READOUT: solubility (mole fraction)
Keep it simple and answer with nothing but the number.

Documented solubility (mole fraction) of CS(=O)(=O)OCCCCOS(C)(=O)=O : 0.000251

----------
details: in ethanol, 293.15 K
READOUT: solubility (mole fraction)
Keep it simple and answer with nothing but the number.

Documented solubility (mole fraction) of CS(=O)(=O)OCCCCOS(C)(=O)=O : 6.08e-05

----------
settings: in ethyl acetate, 298.15 K
READOUT: solubility (mole fraction)
Keep it simple and answer with nothing but the number.

Documented solubility (mole fraction) of CS(=O)(=O)OCCCCOS(C)(=O)=O : 0.0016

----------
conditions: in ethanol, 308.15 K
READOUT: solubility (mole fraction)

Documented solubility (mole fraction) of CS(=O)(=O)OCCCCOS(C)(=O)=O : 0.000211

----------
conditions: in n-butyl acetate, 323.15 K
READOUT: solubility (mole fraction)
Keep it simple and answer with nothing but the number.

Documented solubility (mole fraction) of CS(=O)(=O)OCCCCOS(C)(=O)=O : 0.00281

----------
conditions: in n-butanol, 313.15 K
READOUT: solubility (mole fraction)

Documented solubility (mole fraction) of CS(=O)(=O)OCCCCOS(C)(=O)=O : 0.000135
